# molecule, melting point
measured = [
    ("O=C1NC(=O)c2ccc(Br)cc2/C1=C/NCc1ccc(O)cc1", "296 to 297 °C"),
    ("CC(C)N1CCN(c2ccc(N/C=C3\\C(=O)NC(=O)c4ccc(Br)cc43)nc2)CC1", "223 to 224 °C"),
    ("C[C@@H]1CN(c2ccc(N/C=C3\\C(=O)NC(=O)c4ccc(Br)cc43)cc2)C[C@H](C)N1C", "213 to 214 °C"),
    ("CCN(CC)C(=O)Oc1cc(CN/C=C2\\C(=O)NC(=O)c3ccc(I)cc32)ccc1OC", "128 to 130 °C"),
    ("O=C1NC(=O)c2ccc(/C=C/CCCCl)cc2/C1=C/Nc1ccc(CN2CCCCC2)cc1", "268 to 269 °C"),
    ("COc1ccc(-c2ccc3c(c2)/C(=C/Nc2ccc(CN4CCCC4C)cc2)C(=O)NC3=O)cc1 (stereo not drawn)", "232 to 233 °C"),
    ("O=C1NC(=O)c2ccc(-n3cccc3)cc2/C1=C/Nc1ccc(Br)cn1", "317 to 318 °C (dec.)"),
    ("CC1CCCN1Cc1ccc(N/C=C2\\C(=O)NC(=O)c3ccc(Br)cc32)cc1 (stereo not drawn)", "183 to 184 °C"),
    ("C[C@@H]1CN(c2ccc(N/C=C3\\C(=O)NC(=O)c4ccc(Br)cc43)cc2C(F)(F)F)C[C@H](C)N1", "224 to 225 °C"),
    ("O=Cc1sccc1-c1ccc2c(c1)/C(=C/Nc1ccc(CN3CCCCC3)cc1)C(=O)NC2=O", "224 to 225 °C"),
    ("O=C1NC(=O)c2ccc(-c3ccc(F)cc3)cc2/C1=C/Nc1ccc(CN2CCCCC2)cc1", "195 to 196 °C"),
    ("Cc1cc(N/C=C2\\C(=O)NC(=O)c3ccc(-c4ccoc4)cc32)cnc1N1C[C@@H](C)N[C@@H](C)C1", "195 to 196 °C"),
]

----------
Measured IC50 values are reported for all entries that follow.
Target: cyclin B/CDK1 enzyme (Homo sapiens)
Construct: purchased New England BioLabs; host or cells: Sf9 insect cells, recombinant baculovirus
Sequence (P06493 whole entry): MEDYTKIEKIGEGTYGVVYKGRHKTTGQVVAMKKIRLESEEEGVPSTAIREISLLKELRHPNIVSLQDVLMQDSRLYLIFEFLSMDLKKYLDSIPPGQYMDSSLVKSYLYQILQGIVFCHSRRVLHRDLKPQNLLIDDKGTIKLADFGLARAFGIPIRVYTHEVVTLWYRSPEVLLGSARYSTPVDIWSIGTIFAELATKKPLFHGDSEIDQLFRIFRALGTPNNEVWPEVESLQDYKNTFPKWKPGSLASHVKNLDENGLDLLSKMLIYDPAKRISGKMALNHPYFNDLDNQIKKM
Sequence (P14635 whole entry partner): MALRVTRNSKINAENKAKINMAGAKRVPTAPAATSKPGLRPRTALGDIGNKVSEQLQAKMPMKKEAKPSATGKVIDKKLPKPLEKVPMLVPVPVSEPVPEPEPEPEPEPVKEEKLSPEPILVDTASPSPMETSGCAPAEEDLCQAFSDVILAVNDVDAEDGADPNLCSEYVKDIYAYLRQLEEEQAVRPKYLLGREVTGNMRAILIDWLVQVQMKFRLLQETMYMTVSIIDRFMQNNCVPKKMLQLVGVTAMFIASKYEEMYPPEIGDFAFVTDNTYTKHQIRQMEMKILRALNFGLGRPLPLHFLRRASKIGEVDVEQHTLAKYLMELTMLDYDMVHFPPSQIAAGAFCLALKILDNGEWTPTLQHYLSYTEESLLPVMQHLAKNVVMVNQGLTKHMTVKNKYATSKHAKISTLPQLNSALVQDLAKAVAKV
Assay: CDK1 ELISA kinase assay (phospho-Rb ser 795 detection)
Type: biochemical
Settings: In Vitro Enzyme Assay, cyclin B/CDK1, read-out: CDK1 IC50
recordedEndpoint: IC50 (µM)

# compound, recordedEndpoint, limitSign, measValue
records = [
    ("COc1ccc(CNC=C2C(=O)NC(=O)c3ccc(C=Cc4ccccn4)cc32)cc1O", "IC50", ">", 50),
    ("CCN1CCCC1c1ccc(N/C=C2\\C(=O)NC(=O)c3ccc(I)cc32)cc1 (centres unmarked)", "IC50", ">", 50),
    ("CCCOc1cn(C)c(CN/C=C2\\C(=O)NC(=O)c3ccc(I)cc32)cc1=O", "IC50", ">", 50),
    ("O=C1NC(=O)c2ccc(-c3ccccc3Cl)cc2C1=CNCc1ccc(O)c(O)c1", "IC50", "=", 23.1),
    ("O=C1NC(=O)c2ccc(I)cc2/C1=C/NCc1ccc(-n2cccc2)c(O)c1", "IC50", ">", 50),
    ("CSc1ccc(-c2ccc3c(c2)C(=CNCc2ccc(O)c(O)c2)C(=O)NC3=O)cc1", "IC50", ">", 50),
    ("CN1CCN(c2ccc(N/C=C3\\C(=O)NC(=O)c4ccc(Br)cc43)nn2)CC1", "IC50", "=", 24.2),
    ("NS(=O)(=O)c1ccc(CNC=C2C(=O)NC(=O)c3ccc(-c4ccccc4F)cc32)cc1", "IC50", "=", 13.5),
    ("O=C1NC(=O)c2ccc(I)cc2/C1=C/NCc1ccn(-c2ccsc2)c(=O)c1", "IC50", ">", 50),
    ("O=C1NC(=O)c2ccc(-c3ccco3)cc2/C1=C/NCc1ccc(-c2ccc(F)cc2)c(O)c1", "IC50", ">", 50),
    ("N#Cc1ccc(-c2ccc3c(c2)C(=CNc2ccc(CN4CCCC4)cc2)C(=O)NC3=O)cc1", "IC50", ">", 50),
    ("O=C1NCc2cc(Br)ccc2C1=CNc1ccc(CCO)cc1", "IC50", "=", 37.1),
    ("CN1CCN(c2ccc(NC=C3C(=O)NC(=O)c4ccc(-c5ccc6c(ccn6CC(N)=O)c5)cc43)cc2)CC1", "IC50", "=", 2.7),
    ("CCN(CC)CCn1ccc2cc(-c3ccc4c(c3)C(=CNc3ccc(N5CCN(C)CC5)cc3)C(=O)NC4=O)ccc21", "IC50", ">", 50),
    ("CC(C)(C)c1ccc2c(c1)/C(=C/NCc1cc(O)c(-c3ccccc3)cn1)C(=O)NC2=O", "IC50", "=", 16.3),
    ("CN1CCN(c2ccc(NC=C3C(=O)NCc4cc(Br)ccc43)cc2)CC1", "IC50", ">", 50),
    ("O=C1NC(=O)c2ccc(-c3ccc[nH]3)cc2C1=CNc1ccc(CN2CCCC2)cc1", "IC50", "=", 45.5),
]

----------
Entries and their IC50
Test system: MCF-7
Assay: Cytotoxicity assay (SRB), MCF-7
Assay type: cell-based
Details: Homo sapiens, MCF7, 72 h, MCF-7 cells, SRB, three days; read-out: In Vitro Cellular Activity IC50 MCF-7
recordedEndpoint: IC50 (µM)

# compound, assayedTarget, limitSign, measValue
data = [
    ("COc1ccc(-c2ccc3c(c2)/C(=C/Nc2ccc(CN4CCCC4C)cc2)C(=O)NC3=O)cc1 (centres unmarked)", "MCF-7", "=", 2.5),
    ("O=C1NC(=O)c2ccc(-c3ccsc3)cc2/C1=C/NCc1ccc(OC(F)F)c(O)c1", "MCF-7", "=", 7.2),
    ("COc1cc(CN/C=C2\\C(=O)NC(=O)c3ccc(Br)cc32)cc(OC(C)=O)c1OC", "MCF-7", "=", 14.4),
    ("Nc1cccc(CN/C=C2\\C(=O)NC(=O)c3ccc(Br)cc32)c1", "MCF-7", ">", 50),
    ("C[C@@H]1CN(c2ccc(N/C=C3\\C(=O)NC(=O)c4ccc(-c5ccc(F)cc5)cc43)cc2F)C[C@H](C)N1", "MCF-7", "=", 1.8),
    ("CCCOc1ccc(CN/C=C2\\C(=O)NC(=O)c3ccc(I)cc32)cc1OC(=O)CCl", "MCF-7", "=", 2.2),
    ("COc1cc(CN/C=C2\\C(=O)NC(=O)c3ccc(-c4ccoc4)cc32)cc(O)c1OC", "MCF-7", "=", 4.1),
    ("C[C@@H]1CN(c2ccc(N/C=C3\\C(=O)NC(=O)c4ccc(-c5ccoc5)cc43)cc2F)C[C@H](C)N1", "MCF-7", "=", 0.83),
]

----------
Molecular target: IGF1-receptor kinase (Homo sapiens, UniProt P08069)
Construct: Purified GST-IGFR; purified Bis-IGFR and Tris-IGFR; fused on or other part: GST with a thrombin cleavage site, removed in the Bis-IGFR and Tris-IGFR forms
Sequence (P08069 999-1274 limits assumed): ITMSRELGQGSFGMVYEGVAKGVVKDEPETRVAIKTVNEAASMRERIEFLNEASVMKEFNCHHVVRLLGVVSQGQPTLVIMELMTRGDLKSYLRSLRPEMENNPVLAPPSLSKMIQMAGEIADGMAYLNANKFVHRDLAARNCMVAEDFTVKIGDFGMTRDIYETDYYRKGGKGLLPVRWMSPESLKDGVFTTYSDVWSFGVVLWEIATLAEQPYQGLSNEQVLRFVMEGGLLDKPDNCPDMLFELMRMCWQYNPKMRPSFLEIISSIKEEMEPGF
Experiment: IGF1-R kinase assay (96-well FRET Lance)
Conditions: 100 micromolar ATP; read-out: Igfr ic50
Field 'label' (enum: T / F). Set to T when IC50 is strictly under 1000 nM; else F.

# compoundStructureString, classLabel
data = [
    ("CC(=O)c1cccc(Nc2ccc3c(c2)/C(=C/Nc2ccc(CN4CCCCC4)cc2)C(=O)NC3=O)c1", "T"),
    ("O=C1NC(=O)c2ccc(Nc3ccccc3Cl)cc2/C1=C/Nc1ccc(CN2CCCCC2)cc1", "F"),
    ("O=C1NC(=O)c2ccc(Nc3cccc(Cl)c3)cc2/C1=C/Nc1ccc(CN2CCCCC2)cc1", "F"),
    ("CCN(CC)Cc1ccc(N/C=C2\\C(=O)NC(=O)c3ccc(Nc4ccc(C)cc4)cc32)cc1", "F"),
    ("N#Cc1cccc(Nc2ccc3c(c2)/C(=C/Nc2ccc(CN4CCCCC4)cc2)C(=O)NC3=O)c1", "T"),
    ("O=C1NC(=O)c2ccc(Nc3cccc4ncccc34)cc2/C1=C/Nc1ccc(CN2CCCCC2)cc1", "F"),
    ("CC(=O)c1cccc(Nc2ccc3c(c2)/C(=C/Nc2ccc(N4CCN(C)CC4)cc2)C(=O)NC3=O)c1", "T"),
    ("COc1cccc(Nc2ccc3c(c2)/C(=C/Nc2ccc(CN4CCCCC4)cc2)C(=O)NC3=O)c1", "T"),
    ("CN(C)Cc1ccc(N/C=C2\\C(=O)NC(=O)c3ccc(Nc4ccccc4)cc32)cc1", "T"),
    ("O=C1NC(=O)c2ccc(Nc3cccc(F)c3)cc2/C1=C/Nc1ccc(CN2CCCCC2)cc1", "F"),
    ("O=C1NC(=O)c2ccc(Nc3ccc4c(c3)OCO4)cc2/C1=C/Nc1ccc(CN2CCCCC2)cc1", "T"),
    ("COc1ccccc1Nc1ccc2c(c1)/C(=C/Nc1ccc(CN3CCCCC3)cc1)C(=O)NC2=O", "T"),
    ("O=C1NC(=O)c2ccc(Nc3ccc4c(c3)CCC4)cc2/C1=C/Nc1ccc(CN2CCCCC2)cc1", "F"),
    ("COc1cccc(Nc2ccc3c(c2)/C(=C/Nc2ccc(CN(C)C)cc2)C(=O)NC3=O)c1", "F"),
    ("N#Cc1ccccc1Nc1ccc2c(c1)/C(=C/Nc1ccc(CN3CCCCC3)cc1)C(=O)NC2=O", "F"),
    ("COc1ccc(Nc2ccc3c(c2)/C(=C/Nc2ccc(CN4CCCCC4)cc2)C(=O)NC3=O)cc1", "T"),
]
